- Assayed Target: human α4β7 (Homo sapiens, UniProt P13612+P26010)
- Construct: expressed in transfected cells
- Sequence (P13612 34-1032): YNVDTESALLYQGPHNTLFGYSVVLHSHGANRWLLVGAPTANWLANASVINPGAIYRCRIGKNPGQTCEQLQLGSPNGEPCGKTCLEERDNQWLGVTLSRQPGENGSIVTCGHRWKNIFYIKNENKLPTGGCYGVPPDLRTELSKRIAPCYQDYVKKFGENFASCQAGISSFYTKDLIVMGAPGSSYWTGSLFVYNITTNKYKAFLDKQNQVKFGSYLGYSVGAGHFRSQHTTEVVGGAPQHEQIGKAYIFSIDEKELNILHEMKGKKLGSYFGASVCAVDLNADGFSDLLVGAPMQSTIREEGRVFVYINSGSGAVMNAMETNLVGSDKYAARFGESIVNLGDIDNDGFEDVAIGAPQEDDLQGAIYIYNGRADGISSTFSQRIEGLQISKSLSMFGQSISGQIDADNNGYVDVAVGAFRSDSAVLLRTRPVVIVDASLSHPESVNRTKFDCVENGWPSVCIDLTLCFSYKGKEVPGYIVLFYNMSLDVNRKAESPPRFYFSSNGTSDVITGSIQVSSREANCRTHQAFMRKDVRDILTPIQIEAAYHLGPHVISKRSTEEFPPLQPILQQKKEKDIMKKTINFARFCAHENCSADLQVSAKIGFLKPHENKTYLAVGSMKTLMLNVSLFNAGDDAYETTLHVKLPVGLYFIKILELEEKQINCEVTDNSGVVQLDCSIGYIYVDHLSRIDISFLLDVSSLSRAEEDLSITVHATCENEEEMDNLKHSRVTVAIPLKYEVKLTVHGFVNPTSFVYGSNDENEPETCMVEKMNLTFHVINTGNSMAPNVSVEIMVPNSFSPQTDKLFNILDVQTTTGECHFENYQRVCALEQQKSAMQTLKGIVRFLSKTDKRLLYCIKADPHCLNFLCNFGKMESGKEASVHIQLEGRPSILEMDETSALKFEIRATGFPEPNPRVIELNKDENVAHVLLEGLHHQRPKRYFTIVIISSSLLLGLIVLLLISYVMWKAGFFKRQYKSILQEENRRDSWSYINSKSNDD
- Sequence (P26010 20-798): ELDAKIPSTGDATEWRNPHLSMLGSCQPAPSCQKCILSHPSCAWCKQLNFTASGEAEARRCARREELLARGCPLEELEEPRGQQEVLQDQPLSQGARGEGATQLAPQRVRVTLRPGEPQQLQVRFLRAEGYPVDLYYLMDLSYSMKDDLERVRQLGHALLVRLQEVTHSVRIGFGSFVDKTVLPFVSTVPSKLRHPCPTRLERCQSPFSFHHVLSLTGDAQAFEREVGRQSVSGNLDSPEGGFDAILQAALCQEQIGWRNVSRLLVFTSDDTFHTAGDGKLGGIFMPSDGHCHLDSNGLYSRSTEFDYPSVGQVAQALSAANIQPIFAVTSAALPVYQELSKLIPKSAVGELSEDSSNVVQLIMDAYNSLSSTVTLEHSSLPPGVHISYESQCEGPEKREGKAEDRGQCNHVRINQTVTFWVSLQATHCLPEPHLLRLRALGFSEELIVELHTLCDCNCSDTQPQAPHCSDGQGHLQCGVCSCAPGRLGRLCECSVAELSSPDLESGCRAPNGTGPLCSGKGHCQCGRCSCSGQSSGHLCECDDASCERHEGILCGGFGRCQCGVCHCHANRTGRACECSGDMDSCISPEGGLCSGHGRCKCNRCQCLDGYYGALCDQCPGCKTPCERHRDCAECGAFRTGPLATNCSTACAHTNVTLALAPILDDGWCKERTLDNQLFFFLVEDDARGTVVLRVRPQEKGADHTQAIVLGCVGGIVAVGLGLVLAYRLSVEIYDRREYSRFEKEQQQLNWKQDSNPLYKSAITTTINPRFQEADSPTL
- Assay Explanation: α4β7-K562 Cell Adhesion Assay (α4β7 Mediated Adhesion/VCAM-1)
- Type: cell-based
- Condition Info: Table I; racemic mixtures and resolved (S,S) and (R,S) diastereomers; read-out: Antagonist IC50 Activity α4β7
Value Kind: IC50 (µM)

Some compounds with recorded IC50:
# Compound, Endpoint Unit, IC50
rows = [
    ("O=C(Nc1ccc(C[C@H](NC(=O)[C@@H]2C3CCC(CC3)N2S(=O)(=O)c2ccccc2)C(=O)O)cc1)c1c(Cl)cccc1Cl [Cpd 6a]", "µM", 0.217),
    ("O=C(Nc1ccc(C[C@H](NC(=O)[C@@H]2C3CCC(C3)N2S(=O)(=O)c2ccccc2)C(=O)O)cc1)c1c(F)cccc1F (some centres unmarked) [Cpd 5a]", "µM", 0.062),
    ("CC(C)(C)OC(=O)N1CCC(C(=O)Nc2ccc(C[C@H](NC(=O)[C@@H]3C4CCC(CC4)N3S(=O)(=O)c3ccccc3)C(=O)O)cc2)CC1 [Cpd 53a]", "µM", 0.693),
    ("COc1cccc(OC)c1C(=O)Nc1ccc(C[C@H](NC(=O)[C@@H]2C3CCC(C3)N2S(=O)(=O)c2ccccc2)C(=O)O)cc1 (some centres unmarked) [Cpd 19a]", "µM", 3.82),
    ("O=C(Nc1ccc(C[C@H](NC(=O)[C@@H]2C3CCC(CC3)N2S(=O)(=O)c2cccs2)C(=O)O)cc1)c1c(Cl)cncc1Cl [Cpd 71a]", "µM", 0.033),
]

A = O=C(N[C@@H](Cc1ccc(N2C(=O)c3ccccc3C2=O)cc1)C(=O)O)C1C2CCC(CC2)N1S(=O)(=O)c1ccccc1 (mixture of isomers) [Cpd 47]
B = COc1cccc(OC)c1C(=O)Nc1ccc(C[C@H](NC(=O)[C@H]2C3CCC(C3)N2S(=O)(=O)c2ccccc2)C(=O)O)cc1 (some centres unmarked) [Cpd 19b]
Inquiry: # query: argmin of IC50 over A and B Use the label to indicate which entry you chose.
Reply text: A
(A: 0.083 µM, B: 3.22 µM)
